Tested on: S. cerevisiae expressing PfHSP40, growth rescue, plate reader
experimental.details: Yeast growth rescue from Plasmodium falciparum HSP40 toxicity, dose response confirmatory, plate reader (AID 540271);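 further: yeast growth read after three days of incubation at 30 °C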
AC50 reference

Here are 3 molecules together with their reported answers.
CN(C)c1ccc(C=c2c3cc(O)ccc3n3c2cc(-c2ccccc2)[n+]3C)cc1 | 2.88 µM
Cc1ccc(C(=O)Sc2cccccc2=O)cc1 | 0.295 µM
CCc1sc(C(=O)Nc2nc(-c3ccccn3)cs2)cc1C | 1.82 µM

[in] Entry `CCCNC(=O)c1ccc2c(=O)c(O)c(-c3ccc(F)cc3)[nH]c2c1` has what AC50?
[out] 6.08 µM

[in] And what about the molecule `O=C(CN1CC[n+]2c(-c3cccs3)csc21)c1ccc(-c2ccccc2)cc1` ?
[out] 7.25 µM

[in] Now consider `Cc1c(C2(O)CCCCC2)[nH]c2ccc(C(F)(F)F)cc12` and answer again.
[out] 7.22 µM

[in] Likewise for `CCOC(=O)c1ccc(NC(=S)N(Cc2cccnc2)Cc2ccco2)cc1` ?
[out] 6.54 µM

[in] Param item: `Cc1cccc(NS(=O)(=O)c2ccc(-c3cnc(C4CC4)o3)cc2)c1C`
[out] 5.32 µM

[in] Next up: `Cc1nc2ccc(C(C(F)(F)F)(C(F)(F)F)C(F)(F)F)cc2[nH]1`
[out] 3.2 µM

[in] Moving on to the next molecule: `O/N=C/c1ccccc1OCc1ccc(Cl)cc1`
[out] 5.07 µM

[in] Now consider `O=Cc1cc(N=Nc2ccccc2Cl)ccc1O` and answer again.
[out] 0.768 µM

----------
Recorded AC50 for the following molecules
Test system: S. cerevisiae expressing PfHSP40, growth rescue, plate reader
experimental.details: Yeast growth rescue from Plasmodium falciparum HSP40 toxicity, dose response confirmatory, plate reader (AID 540271);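 further: yeast growth read after three days of incubation at 30 °C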

O=C(CSc1ccc(-c2ccccn2)nn1)NC1CCCCC1 | 4.21 µM

[in] Bench note: what AC50 did `O=C(NCCC1=CCCCC1)c1c(O)nc2sccn2c1=O` show?
[out] 3.82 µM

[in] Record: `CCCCNC(=S)N/N=C1\CCCCc2ccccc21`
[out] 10.3 µM

[in] Same again, this time with `CN(Cc1ccc(Cl)s1)C(=O)CCl`
[out] 6.37 µM

[in] Same again, this time with CC1CC(C)CN(C(=O)c2cccc(S(=O)(=O)Nc3cc(C(F)(F)F)ccc3Cl)c2)C1 (stereo unspecified)
[out] 5.69 µM

[in] Try COc1cccc2c1C(=O)c1c(O)c3c(c(O)c1C2=O)CC(O)(C(C)=O)CC3OC1CC(N(C)C)C(O)C(C)O1 (stereo unspecified) next.
[out] 1.41 µM

----------
The following compounds are shown together with reported AC50 values.
Test system: S. cerevisiae expressing PfHSP40, growth rescue, plate reader
experimental.details: Yeast growth rescue from Plasmodium falciparum HSP40 toxicity, dose response confirmatory, plate reader (AID 540271);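 further: yeast growth read after three days of incubation at 30 °C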

[in] Entry `O=[N+]([O-])c1cccc(-c2cc(-c3cc(Br)ccc3O)[nH]n2)c1` has what AC50?
[out] 5.44 µM

[in] Entry to check: `Oc1c(Br)cc(-c2ccccc2)cc1Br`
[out] 4.93 µM

[in] Same again, this time with `Cc1ccc(CNC(=O)CSc2ccc(-c3ccccn3)nn2)cc1`
[out] 4.21 µM

[in] Record: `Cn1ccc(=Nc2ccc(NC(=O)c3ccc(N=c4ccn(C)c5ccc([N+](=O)[O-])cc45)cc3)cc2)cc1`
[out] 6.48 µM

[in] Here is the next compound: CC(CNC(=O)COc1ccccc1)OC(=O)Nc1ccc(Cl)c(Cl)c1 (stereo unspecified)
[out] 6.12 µM
